# Test system: A431
# assay-comment: whole-cell filipin (free cholesterol) integrated intensity, Z-score; higher = more cholesterol staining
# settings: compound concentration in added solution (µM; 5 µl added to 20 µl cells): 10; 18 h
Counter-ions that a name gives are not always drawn.
value-type: whole-cell filipin (z-score)
Hey, just send me the number, nothing else.

// solved cases for whole-cell filipin (z-score) follow
molecule: CCOC(=O)n1ccn(C)c1=S
assayed-system: A431
value-type: whole-cell filipin (z-score)
meas-value: -0.405
--
molecule: CNCCCN1c2ccccc2CCc2ccccc21 [Desipramine hydrochloride]
assayed-system: A431
value-type: whole-cell filipin (z-score)
meas-value: 1.99
--
molecule: CCCCNc1c(C(=O)OCC)c(C)nc2c1cnn2CC [Tracazolate hydrochloride]
assayed-system: A431
value-type: whole-cell filipin (z-score)
meas-value: 0.113
--
molecule: CCCC1C(=O)N2C(N(C)C)=Nc3ccc(C)cc3N2C1=O (stereo not drawn)
assayed-system: A431
value-type: whole-cell filipin (z-score)
meas-value: 0.0445
--
molecule: CCN(CC)CCOC(=O)C1(C2CCCCC2)CCCCC1 [Dicyclomine hydrochloride]
assayed-system: A431
value-type: whole-cell filipin (z-score)
meas-value: 0.137
--
molecule: CN(C)CCN(Cc1ccccc1)c1ccccn1 [Tripelennamine hydrochloride]
assayed-system: A431
value-type: whole-cell filipin (z-score)
meas-value: 0.0432
--
molecule: CCC(Cc1c(I)cc(I)c(N)c1I)C(=O)O (stereo not drawn)
assayed-system: A431
value-type: whole-cell filipin (z-score)
meas-value: -0.348
--
molecule: NS(=O)(=O)c1cc2c(cc1Cl)N=CNS2(=O)=O [Chlorothiazide]
assayed-system: A431
value-type: whole-cell filipin (z-score)
meas-value: -0.521
--
molecule: CC(C)NCC(O)COc1cccc2[nH]ccc12 (stereo not drawn)
assayed-system: A431
value-type: whole-cell filipin (z-score)
meas-value: -0.497
--
molecule: OCCOCCN1CCN(C(c2ccccc2)c2ccc(Cl)cc2)CC1 (stereo not drawn) [Hydroxyzine dihydrochloride]
assayed-system: A431
value-type: whole-cell filipin (z-score)
meas-value: 0.266

IN: Fill in the recorded whole-cell filipin (z-score) for this molecule, with A431 as test system: COCCOC(=O)C1=C(C)NC(C)=C(C(=O)OC/C=C/c2ccccc2)C1c1cccc([N+](=O)[O-])c1 (stereo not drawn)
OUT: 1.38

IN: Now this one: COc1ccc2[nH]c([S+]([O-])Cc3ncc(C)c(OC)c3C)nc2n1 (stereo not drawn)
OUT: -0.478

IN: Now this one: COc1ccc2c(c1)N(C[C@H](C)CN(C)C)c1ccccc1S2 [Methotrimeprazine maleat salt]
OUT: 1.03

IN: Now this one: CC(=O)O[C@]1(C(C)=O)CC[C@H]2[C@@H]3C=C(Cl)C4=CC(=O)CC[C@]4(C)[C@H]3CC[C@@]21C [Chlormadinone acetate]
OUT: 0.739

IN: Now this one: CNCCc1ccccn1 [Betahistine mesylate]
OUT: -0.443

IN: Now this one: COc1c(N2C[C@@H]3CCCN[C@@H]3C2)c(F)cc2c(=O)c(C(=O)O)cn(C3CC3)c12
OUT: -0.138

IN: Now this one: CC(C)(C)NC(=O)[C@H]1CC[C@H]2[C@@H]3CC[C@H]4NC(=O)C=C[C@]4(C)[C@H]3CC[C@]12C [Finasteride]
OUT: 0.536

IN: Now this one: CC(=O)Nc1nnc(S(N)(=O)=O)s1 [Acetazolamide]
OUT: -0.799

Data origin: the supplement of paper PMC6607015
